assayedTarget: human TCRvβ (BIM0444) (human)
Sequence (A0A0K0K1A5 22-114): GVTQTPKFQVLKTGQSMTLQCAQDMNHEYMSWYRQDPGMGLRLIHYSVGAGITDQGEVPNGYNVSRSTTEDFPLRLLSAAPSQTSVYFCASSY
method: SPR (Biacore): antibody captured via anti-human Fc on CM5, BIM0444 as analyte, 1:1 fit
# reported Kd; entries follow
Write it as a number; the unit nM goes unstated.

Exam item: Which Kd is listed for BJM0502 (scFv, part only; not given: Fc scaffold making it bivalent, part only) scFv, part: QVQLVQSGAEVKKPGSSVKVSCKASGHDFHLWYIHWVRQAPGQGLEWMGRVSAGSGNVKYNEKFKGRVTITADTSTSTAYMELSSLRSEDTAVYYCAGSYYSYDVLDYWGQGTTVTVSSGGGGSGGGGSGGGGSGGGGSDIQMTQSPSFLSASVGDRVTITCKASQNVDNKVAWHQQKPGKAPKALIYSSSHRYKGVPSRFSGSGSGTEFTLTISSLQPEDFATYFCQQFKSYPLTFGQGTKLEIK ?
Marked response: 20

Exam item: Which Kd value belongs to A-H.23 (scFv, not shown: a dimerising Fc or GST) scFv: QVQLVQSGAEVKKPGSSVKVSCKASGHDFRLTYIHWVRQAPGQGLEWMGRISAGSGNVKYNEKFKGRVTITADTSTSTAYMELSSLRSEDTAVYYCAGSYYSYDVLDYWGQGTTVTVSSGGGGSGGGGSGGGGSGGGGSDIQMTQSPSFLSASVGDRVTITCKASQNVADRVAWYQQKPGKAPKALIYSSSHRYKGVPSRFSGSGSGTEFTLTISSLQPEDFATYFCQQFKSYPLTFGQGTKLEIK ?
Marked response: 1.7
